Data origin: ChEMBL document CHEMBL1143884

Biological target: Calcium/calmodulin-dependent protein kinase type II subunit delta (Homo sapiens, UniProt Q13557)
Sequence (Q13557 whole entry): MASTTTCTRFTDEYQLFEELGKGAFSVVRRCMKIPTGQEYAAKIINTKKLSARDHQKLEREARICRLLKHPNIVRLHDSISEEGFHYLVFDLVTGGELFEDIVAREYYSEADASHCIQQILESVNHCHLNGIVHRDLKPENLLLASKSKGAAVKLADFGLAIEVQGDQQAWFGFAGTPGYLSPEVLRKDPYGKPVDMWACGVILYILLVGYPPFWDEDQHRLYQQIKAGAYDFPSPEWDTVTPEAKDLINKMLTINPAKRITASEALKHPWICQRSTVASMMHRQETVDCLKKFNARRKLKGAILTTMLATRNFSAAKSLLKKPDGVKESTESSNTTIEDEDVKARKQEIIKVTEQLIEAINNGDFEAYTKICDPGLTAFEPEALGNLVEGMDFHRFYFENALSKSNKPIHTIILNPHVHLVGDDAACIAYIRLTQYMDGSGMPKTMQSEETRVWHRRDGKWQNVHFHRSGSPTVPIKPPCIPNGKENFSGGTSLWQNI
Assay: Inhibition of CaMK2delta-mediated vimentin phosphorylation in human HL2 cells at 5 uM after 1 hr by ELISA
Format: cell-based
reported metric: inhibition (%)

Example entries begin here.
[
  {
    "given smiles": "c1ccc(Nc2nccc(-c3ccc(-c4nnn[nH]4)cc3)n2)cc1",
    "reported metric": "inhibition",
    "value reported": 0
  },
  {
    "given smiles": "O=C(O)c1ccc(-c2ccnc(Nc3ccccc3)n2)cc1",
    "reported metric": "inhibition",
    "value reported": 0
  },
  {
    "given smiles": "COC(=O)c1ccc(-c2ccnc(Nc3ccccc3)n2)cc1",
    "reported metric": "inhibition",
    "value reported": 0
  }
]

(I) O=C(O)c1ccc(-c2ccnc(Nc3cccc(Cl)c3)n2)cc1
(II) O=C(NO)c1ccc(-c2ccnc(Nc3ccccc3)n2)cc1
Incoming: Hi! Which is lower in terms of inhibition, the first one I or the second one II ? Refer to your chosen item by its label in the answer.
Outgoing: I
(I: 0%, II: 90%)

---

Target: Calcium/calmodulin-dependent protein kinase type II subunit delta (Homo sapiens, UniProt Q13557)
Assay: Inhibition of cloned CaMK2delta
reported metric: IC50 (nM)

(A) CNC(=O)c1ccc(-c2ccnc(Nc3ccnc(N[C@@H](C)c4ccccc4)c3)n2)cc1
(B) C[C@H](Nc1cc(Nc2nccc(-c3ccc(Cl)cc3)n2)ccn1)c1ccccc1
(C) Clc1cccc(Nc2nccc(-c3cccc(N4CCOCC4)c3)n2)c1
(D) C[C@H](Nc1cc(Nc2nccc(-c3cccc(F)c3)n2)ccn1)c1ccccc1
Incoming: // sort listed items: IC50 descending List the labels in the requested order.
Outgoing: B, D, A, C
(B: 2870 nM, D: 1280 nM, A: 720 nM, C: 240 nM)

(I) c1ccc(Nc2nccc(-c3ccc(-c4nnn[nH]4)cc3)n2)cc1
(II) C[C@H](Nc1cc(Nc2nccc(-c3ccc(C(=O)O)cc3)n2)ccn1)c1ccccc1
Incoming: # query: argmin of IC50 over I and II Indicate your choice by writing its label.
Outgoing: II
(II: 210 nM, I: 770 nM)

---

Molecular target: Calcium/calmodulin-dependent protein kinase type II subunit delta (Homo sapiens, UniProt Q13557)
Assay: Inhibition of cloned CaMK2delta
pIC50: −log10 of the molar value.
reported metric: pIC50

Answered cases to consult:
[
  {
    "given smiles": "O=C(O)c1ccc(-c2ccnc(Nc3ccncc3)n2)cc1",
    "reported metric": "pIC50",
    "value reported": 6.41
  },
  {
    "given smiles": "C[C@H](Nc1cc(Nc2nccc(-c3ccc(-c4nnn[nH]4)cc3)n2)ccn1)c1ccccc1",
    "reported metric": "pIC50",
    "value reported": 5.65
  },
  {
    "given smiles": "C[C@H](Nc1cc(Nc2nccc(-c3cccc(-c4ccccc4)c3)n2)ccn1)c1ccccc1",
    "reported metric": "pIC50",
    "value reported": 5.50
  },
  {
    "given smiles": "C[C@H](Nc1cc(Nc2nccc(-c3ccc(CC(=O)O)cc3)n2)ccn1)c1ccccc1",
    "reported metric": "pIC50",
    "value reported": 5.47
  },
  {
    "given smiles": "Clc1cccc(Nc2nccc(-c3cccc(N4CCCCC4)c3)n2)c1",
    "reported metric": "pIC50",
    "value reported": 6.03
  }
]

(I) C[C@H](Nc1cc(Nc2nccc(-c3ccc(C(=O)NO)cc3)n2)ccn1)c1ccccc1
(II) C[C@H](Nc1cc(Nc2nccc(-c3cccc(C(=O)O)c3)n2)ccn1)c1ccccc1
Incoming: Please compare: I and II . Report which one has the smaller pIC50 value. The response must carry the label of the picked entry.
Outgoing: II
(II: 4.89, I: 6.77)

(P) O=C(O)c1ccc(-c2ccnc(Nc3cccc(Cl)c3)n2)cc1
(Q) O=C(NO)c1ccc(-c2ccnc(Nc3ccccc3)n2)cc1
Incoming: # argmax over pIC50 for candidates P and Q Give the label under which the chosen entry appears.
Outgoing: P
(P: 7.38, Q: 6.54)

---

Molecular target: Calcium/calmodulin-dependent protein kinase type II subunit delta (Homo sapiens)
Experiment: Inhibition of CaMK2delta-mediated vimentin phosphorylation in human HL2 cells after 1 hr by ELISA
Format: cell-based
reported metric: IC50 (nM)

(A) Clc1cccc(Nc2nccc(-c3cccc(N4CCNCC4)c3)n2)c1
(B) NCCNc1cccc(-c2ccnc(Nc3cccc(Cl)c3)n2)c1
Incoming: Param pair: A , B . Output: the one whose IC50 is numerically greater. Provide the label of your selected option as the answer.
Outgoing: A
(A: 320 nM, B: 110 nM)

---

Biological target: Calcium/calmodulin-dependent protein kinase type II subunit delta (Homo sapiens, UniProt Q13557)
Assay: Inhibition of cloned CaMK2delta
pIC50: −log10 of the molar value.
reported metric: pIC50

A selection of reference data follows.
[
  {
    "given smiles": "Cc1cccc(-c2ccnc(Nc3ccnc(N[C@@H](C)c4ccccc4)c3)n2)c1",
    "pIC50": 6.04
  },
  {
    "given smiles": "COC(=O)c1ccc(-c2ccnc(Nc3ccnc(N[C@@H](C)c4ccccc4)c3)n2)cc1",
    "pIC50": 5.77
  },
  {
    "given smiles": "O=C(O)c1ccc(-c2ccnc(Nc3ccccc3)n2)cc1",
    "pIC50": 7.19
  },
  {
    "given smiles": "Clc1cccc(Nc2nccc(-c3cccc(N4CCNCC4)c3)n2)c1",
    "pIC50": 8.05
  }
]

(A) C[C@H](Nc1cc(Nc2nccc(-c3ccc(N(C)C)cc3)n2)ccn1)c1ccccc1
(B) Nc1cc(Nc2nccc(-c3ccc(C(=O)O)cc3)n2)ccn1
Incoming: Dear colleague, could you let me know whether A or B has the lower recorded pIC50? Thanks. Answer by quoting the chosen item's label.
Outgoing: A
(A: 5.65, B: 7.18)

(A) NCCNc1cccc(-c2ccnc(Nc3cccc(Cl)c3)n2)c1
(B) Nc1cccc(-c2ccnc(Nc3cccc(Cl)c3)n2)c1
Incoming: Field: entry with larger pIC50 (options A / B ). Indicate which entry you chose by stating its label.
Outgoing: A
(A: 7.92, B: 6.18)
